Where these numbers come from: PubChem BioAssay (NCATS)

Assay: Primary qHTS for small molecule stabilizers of the endoplasmic reticulum resident proteome: Secreted ER Calcium Modulated Protein (SERCaMP) assay (AID 1508630); further: on the % scale 0 is the no-effect control and ±100 the full control effect
Conditions: SH-SY5Y GLuc-SERCaMP (Gaussia luciferase released on ER calcium loss) secretion, thapsigargin, luminescence; series mostly up to 38.4 µM
Inconclusive results are not listed. Active and inactive are the calls of the source. The call rests on the fitted dose curve; in most records, active means well fitted inhibition curve with a large enough effect; inconclusive means small, poorly fitted or top-dose-only effect; inactive means no such curve, though single readings can be large or run the other way.
endpointLabel: outcome

>>> result("O=C1C=CC(=O)C=C1")
"inactive"
>>> result("C[C@@H]1O[C@H](C[N+](C)(C)C)CS1")
"inactive"
>>> result("O=c1c2ccccc2[se]n1-c1ccccc1")
"inactive"
>>> result("N[C@@H](CCl)C(=O)O")
"inactive"

Measured outcome of C[N+]1(C)CCOC(O)(c2ccc(-c3ccc(C4(O)C[N+](C)(C)CCO4)cc3)cc2)C1 (configuration not stated) : inactive

outcome measured on CN(N=O)c1cc(O)ccc1O = inactive

Lookup result for C=CCN1CC[C@]23c4c5ccc(O)c4O[C@H]2/C(=N/NC(=O)c2ccccc2)CC[C@@]3(O)[C@H]1C5 ; measured outcome: inactive

###

Test: Drug repurposing screens with cells derived from glioblastoma tumor samples (AID 1345199); further: on the % scale 0 is the no-effect control and ±100 the full control effect; nearly all actives have a fitted effect of over 40% in size
Conditions: GBM patient neurospheres viability, ATP luminescence, 48 h; at 46.1 µM (top of the series); tumour line C
Records with an inconclusive call do not appear.
endpointLabel: activity, negative = cell killing (%)
Quick reminder: number only, in %, skip the unit.

Looking up C[C@@H](Cc1ccccc1)N(C)C , I found its activity, negative = cell killing recorded as -6.52

activity, negative = cell killing reported for this molecule CCC1(c2ccccc2)C(=O)NC(=O)N(C)C1=O (stereo not drawn) : 7.87

For reference, reported activity, negative = cell killing for C=CCN=C=S stands at 6.26

The recorded activity, negative = cell killing for CCCCNCC(O)c1ccc(O)cc1 (stereo not drawn) is 1.33

Short answer for O=C1CCO1 : activity, negative = cell killing was -10.3

The recorded activity, negative = cell killing for entry COC(=O)[C@@H]1[C@H]2CC[C@@H](C[C@H]1OC(=O)c1ccccc1)N2C equals -3.81

Documented activity, negative = cell killing of O=CC=O : 29.7

Short answer for CC(C)CCC(=O)O[C@H]1CC[C@H]2[C@@H]3CCC4=CC(=O)CC[C@]4(C)[C@H]3CC[C@]12C : activity, negative = cell killing was -19.7

###

Test system: 3D7
Test: qHTS profiling for inhibitors of Plasmodium falciparum proliferation (AID 504749); further: nearly all actives have a fitted effect of over 60% in size
Settings: P. falciparum in erythrocytes, SYBR Green DNA, 72 h; series mostly up to 28.7 µM
Records with an inconclusive call do not appear. The source made the active and inactive calls. The call rests on the fitted dose curve; in most records, active means well fitted inhibition curve with a large enough effect; inconclusive means small, poorly fitted or top-dose-only effect; inactive means flat fitted curve, though single readings scatter.
Your response should consist of one outcome taken from 1 (active), -1 (inactive)

Ask: Dear colleague, could you share the recorded outcome for CC(=O)O[C@H]1CC[C@H]2[C@@H]3CCC4=CC(=O)CCC4=C3C=C[C@]12C when you have a moment?
Reply: -1

Ask: Give the logged outcome of this assay for the following compound: O=[N+]([O-])c1ccccc1
Reply: -1

Ask: Dear colleague, could you share the recorded outcome for COc1ccc(OC)c(C(O)C(C)N)c1 (stereo not drawn) when you have a moment?
Reply: -1

Ask: Write down the call the test reported for this compound. Item: FC(F)OC(F)(F)C(F)Cl (stereo not drawn)
Reply: -1

Ask: Record request — test call for C[C@]12CCC(=O)C[C@@H]1CC[C@@H]1[C@@H]2CC[C@]2(C)[C@@H](O)CC[C@@H]12
Reply: -1

Ask: Fill in: this test's call for CC(N)Cc1ccc(O)cc1 (stereo not drawn) is ___
Reply: -1

Ask: Just curious, what result did Oc1cccc[c]1[Hg][Cl] get here?
Reply: 1

Ask: I'd appreciate the recorded outcome for O=C(CCl)c1ccc(Oc2ccc(C(=O)CCl)cc2)cc1 from this test.
Reply: -1

Ask: Query: recorded result category for S=C(S)N1CCNCC1 in this test
Reply: -1

Ask: Each compound tested received a call. Report the one for COc1ccc2c(c1OC)C(=O)OC2C1c2cc3c(cc2CCN1C)OCO3 (stereo not drawn) .
Reply: -1

Ask: GET /call?item= C=CCN=C=S returns the recorded outcome of this test.
Reply: -1

Ask: Answer briefly: the call reported for CC12NC(Cc3ccccc31)c1ccccc12 (stereo not drawn) in this assay.
Reply: -1

Ask: What was the test verdict on O=C1C2CC=CCC2C(=O)N1SC(Cl)(Cl)Cl (stereo not drawn) ?
Reply: -1
